Test: Pharmacokinetic study in ICR mice
Type: in vivo
Details: mouse, plasma, po, 100 mg/kg
MEASURE_NAME: half-life (h)
Numbers only, in h.

# input compound: O=c1nc(N2CCN(CC3CCCCC3)CC2)sc2c([N+](=O)[O-])cc(C(F)(F)F)cc12 ; wanted: its half-life
2.09

---

Assay: Pharmacokinetic study in ICR mice
Format: in vivo
Conditions: mouse, lung, iv, 10 mg/kg
MEASURE_NAME: half-life (h)
Give bare numbers, in h.

# input compound: O=c1nc(N2CCN(CC3CCCCC3)CC2)sc2c([N+](=O)[O-])cc(C(F)(F)F)cc12 ; wanted: its half-life
3.16

---

Assay: Pharmacokinetic study in ICR mice
Assay type: in vivo
Details: mouse, lung, po, 100 mg/kg
MEASURE_NAME: MRT inf (h)
Give bare numbers, in h.

# input compound: O=c1nc(N2CCN(CC3CCCCC3)CC2)sc2c([N+](=O)[O-])cc(C(F)(F)F)cc12 ; wanted: its MRT inf
6.5

---

Molecular target: CYP2C19 (Homo sapiens)
Sequence (P33261 whole entry): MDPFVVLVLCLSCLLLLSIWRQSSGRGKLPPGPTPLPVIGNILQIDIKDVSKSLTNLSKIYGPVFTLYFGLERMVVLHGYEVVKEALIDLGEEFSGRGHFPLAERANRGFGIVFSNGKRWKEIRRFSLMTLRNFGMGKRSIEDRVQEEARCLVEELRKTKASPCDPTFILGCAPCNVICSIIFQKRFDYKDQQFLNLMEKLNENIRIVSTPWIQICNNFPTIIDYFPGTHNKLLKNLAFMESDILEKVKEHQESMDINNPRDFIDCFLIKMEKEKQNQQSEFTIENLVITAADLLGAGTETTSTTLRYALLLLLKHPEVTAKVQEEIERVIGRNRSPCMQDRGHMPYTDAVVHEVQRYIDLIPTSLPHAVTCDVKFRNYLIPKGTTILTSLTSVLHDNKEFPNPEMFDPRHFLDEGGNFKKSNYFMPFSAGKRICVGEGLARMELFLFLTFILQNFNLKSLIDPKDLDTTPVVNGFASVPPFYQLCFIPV
MEASURE_NAME: pIC50
Numbers only, as −log10 of the molar value.

Provide value of pIC50 for this record tested with CYP2C19 (Homo sapiens): O=C1CN(c2nc(=O)c3cc(C(F)(F)F)cc([N+](=O)[O-])c3s2)CCN1C1CCCC1
5.07

---

Assay: Pharmacokinetic study in ICR mice
Format: in vivo
Details: mouse, lung, iv, 10 mg/kg
MEASURE_NAME: Cmax (ng/mL)
Give bare numbers, in ng/mL.

# input compound: O=c1nc(N2CCN(CC3CCCCC3)CC2)sc2c([N+](=O)[O-])cc(C(F)(F)F)cc12 ; wanted: its Cmax
4210

---

Molecular target: CYP3A4 (Homo sapiens, UniProt P08684)
Sequence (P08684 whole entry): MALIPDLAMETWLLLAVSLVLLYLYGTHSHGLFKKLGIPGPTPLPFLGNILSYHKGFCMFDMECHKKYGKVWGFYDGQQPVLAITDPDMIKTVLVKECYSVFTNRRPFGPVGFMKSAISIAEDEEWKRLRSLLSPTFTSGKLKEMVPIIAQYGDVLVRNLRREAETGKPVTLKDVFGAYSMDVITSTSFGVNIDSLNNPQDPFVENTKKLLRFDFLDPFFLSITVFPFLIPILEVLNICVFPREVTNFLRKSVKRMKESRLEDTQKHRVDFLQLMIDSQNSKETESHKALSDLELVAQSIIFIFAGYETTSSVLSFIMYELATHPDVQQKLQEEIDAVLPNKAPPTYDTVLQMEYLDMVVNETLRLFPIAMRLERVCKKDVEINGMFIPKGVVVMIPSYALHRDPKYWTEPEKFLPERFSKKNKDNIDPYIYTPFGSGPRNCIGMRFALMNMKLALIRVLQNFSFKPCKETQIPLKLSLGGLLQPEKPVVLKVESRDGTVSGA
MEASURE_NAME: pIC50
One number for each entry, as −log10 of the molar value.

# input compound: O=C1CN(c2nc(=O)c3cc(C(F)(F)F)cc([N+](=O)[O-])c3s2)CCN1C1CCCC1 ; wanted: its pIC50
5.27

---

Assay: physchem
Details: 37 °C, water, thermodynamic from solid
Exercise: for every item that follows, state its recorded solubility.

Worked set:
SMILES_RECORD	MEASURE_NAME	RESULT
O=C1CN(c2nc(=O)c3cc(C(F)(F)F)cc([N+](=O)[O-])c3s2)CCN1C1CCCCC1	solubility	1.63 µg/mL
O=C1CN(c2nc(=O)c3cc(C(F)(F)F)cc([N+](=O)[O-])c3s2)CCN1CC1CCCCC1	solubility	3.57 µg/mL
C[C@H]1COC2(CCN(c3nc(=O)c4cc(C(F)(F)F)cc([N+](=O)[O-])c4s3)CC2)O1	solubility	< 1 µg/mL

Please report solubility for every entry that follows.
1. Cc1ccnc(OC2CCN(c3nc(=O)c4cc(C(F)(F)F)cc([N+](=O)[O-])c4s3)CC2)n1
2. Cc1ccc(OC2CCN(c3nc(=O)c4cc(C(F)(F)F)cc([N+](=O)[O-])c4s3)CC2)c(F)c1
3. O=C1CN(c2nc(=O)c3cc(C(F)(F)F)cc([N+](=O)[O-])c3s2)CCN1C1CCCC1

1: 2.39 µg/mL; 2: 1 µg/mL; 3: 7.37 µg/mL

---

Test: in vitro
Details: dog, MDCK-MDR1, pH 7.4
Exercise: for every item that follows, state its recorded efflux ratio.

COMPOUND	efflux ratio
C[C@H]1COC2(CCN(c3nc(=O)c4cc(C(F)(F)F)cc([N+](=O)[O-])c4s3)CC2)O1 [BTZ043]	0.79

# next compound below
# input compound: O=C1CN(c2nc(=O)c3cc(C(F)(F)F)cc([N+](=O)[O-])c3s2)CCN1C1CCCC1 [Compound 1a] ; wanted: its efflux ratio
0.68
